# MEASURED_ON: T1, human MSLN-FL-his protein (human, UniProt Q13421 296-580)
# T1 construct: Made in HEK293E cells, purified on nickel column; also called hMSLN-FL-his; human MSLN full-length protein; not shown: His tag
# PROTOCOL_NOTES: ELISA, coated antigen, antibody 0.2 nM
READOUT_NAME: OD450
Number only, please.

Report measured OD450; entry is S009-F7.61.21 chimeric antibody (antibody, human IgG1, kappa, V domains shown, Human-murine chimeric antibody, human IgG1/kappa constant regions) VH: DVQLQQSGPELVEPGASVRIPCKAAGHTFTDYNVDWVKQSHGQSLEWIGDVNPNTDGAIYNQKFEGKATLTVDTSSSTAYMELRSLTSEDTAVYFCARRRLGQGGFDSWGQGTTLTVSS VL: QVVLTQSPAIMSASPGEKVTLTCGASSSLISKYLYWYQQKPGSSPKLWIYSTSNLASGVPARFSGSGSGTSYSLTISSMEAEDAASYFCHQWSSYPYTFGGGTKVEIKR
1.96
